System: Plasmodium falciparum
Assay: Antimicrobial activity against Plasmodium falciparum in erythrocytes
Type: functional, organism-based

| structure | EC50 (µM) |
| --- | --- |
| Cc1cccc(C)c1OCC(=O)N[C@@H](Cc1ccccc1)[C@H](O)C(=O)N1CSC(C)(C)[C@H]1C(=O)N[C@H]1c2ccccc2C[C@H]1O | 6.8 |
| CSC[C@H](NC(=O)COc1cccc2cnccc12)C(=O)N[C@@H](Cc1ccccc1)[C@H](O)C(=O)N1CSC(C)(C)[C@H]1C(=O)N[C@H]1c2ccccc2C[C@H]1O | 3.1 |
| CSC[C@H](NC(=O)Cc1ccccc1C)C(=O)N[C@@H](Cc1ccccc1)[C@H](O)C(=O)N1CSC(C)(C)[C@H]1C(=O)N[C@H]1c2ccccc2C[C@H]1O | 4.7 |
